Measured LD50 at 48 h by item
Assay text: Acute toxicity
Experimental parameters: mouse, in vivo, ip; mice, intraperitoneal, determined 48 hours later; read-out: DL50
Counter-ions that a name gives are not always drawn.
Quantity: LD50 at 48 h (mg/kg)

[
  {
    "Compound": "CN(C)[C@H]1CCc2ccc(Cl)cc2[C@@H](Oc2ccc([N+](=O)[O-])cc2)C1 (relative stereo) [Example 19, hydrochloride]",
    "Quantity": "LD50 at 48 h",
    "Result comparator": ">",
    "Reading": 200
  },
  {
    "Compound": "CN(C)[C@H]1CCc2ccc(Cl)cc2[C@H](Oc2ccc([N+](=O)[O-])cc2)C1.Cl (relative stereo)",
    "Quantity": "LD50 at 48 h",
    "Result comparator": "=",
    "Reading": 100
  },
  {
    "Compound": "CN(C)[C@H]1CCc2ccccc2[C@@H](Oc2ccc([N+](=O)[O-])c(C(F)(F)F)c2)C1 (relative stereo)",
    "Quantity": "LD50 at 48 h",
    "Result comparator": ">",
    "Reading": 400
  },
  {
    "Compound": "CN(C)[C@@H]1CCc2ccccc2[C@H](Oc2ccc(C(F)(F)F)cc2)C1.Cl (relative stereo)",
    "Quantity": "LD50 at 48 h",
    "Result comparator": "=",
    "Reading": 150
  }
]

* * *

Assay text: Acute toxicity
Experimental parameters: mouse, in vivo, ip; mice, intraperitoneal, determined 48 hours later; read-out: DL50

[
  {
    "Compound": "CN(C)[C@@H]1CCc2ccccc2[C@H](Oc2ccccc2[N+](=O)[O-])C1.Cl (relative stereo)",
    "Units text": "mg/kg",
    "LD50 at 48 h": 150
  },
  {
    "Compound": "CN[C@@H]1CCc2ccccc2[C@H](Oc2ccc(C(F)(F)F)cc2)C1.Cl (relative stereo)",
    "Units text": "mg/kg",
    "LD50 at 48 h": 400
  },
  {
    "Compound": "CN(C)[C@@H]1CCc2ccccc2[C@H](Oc2ccc(N)cc2)C1.Cl.Cl (relative stereo)",
    "Units text": "mg/kg",
    "LD50 at 48 h": 200
  },
  {
    "Compound": "CN(C)[C@H]1CCc2ccccc2[C@@H](Oc2ccc([N+](=O)[O-])cc2)C1 (relative stereo)",
    "Units text": "mg/kg",
    "LD50 at 48 h": 100
  },
  {
    "Compound": "CN(C)[C@H]1CCc2ccccc2[C@H](Oc2ccc([N+](=O)[O-])cc2)C1.Cl (relative stereo)",
    "Units text": "mg/kg",
    "LD50 at 48 h": 100
  },
  {
    "Compound": "CN(C)[C@@H]1CCc2ccccc2[C@H](Oc2ccc(Br)cc2)C1.Cl (relative stereo)",
    "Units text": "mg/kg",
    "LD50 at 48 h": 150
  },
  {
    "Compound": "CN(C)[C@@H]1CCc2ccccc2[C@H](Oc2ccccc2C(F)(F)F)C1.Cl (relative stereo)",
    "Units text": "mg/kg",
    "LD50 at 48 h": 200
  }
]
